# method: ATPlite assay for cytotoxicity assessment
# settings: dog, MDCK cells (results text: MDCK-HA cells)
Documented CC50 at 24 h across a set of compounds
quantityKind: CC50 at 24 h

compound | quantityKind | observedResult
COc1cc2nc(N3CCN(C(=O)C4CCCO4)CC3)nc(N)c2cc1OC (centres unmarked) | CC50 at 24 h | > 250 µM
COc1cc2nc(N3CCN(C(=O)c4ccco4)CC3)nc(N)c2cc1OC | CC50 at 24 h | 78.2 µM

###

# assaySystem: influenza RNA promoter
# Format: binding, influenza A virus
# settings: pH 6
pKd: −log10 of the molar value.

structureSmiles | assaySystem | pKd
CCCC(=O)N1CCN(c2nc(N)c3cc(OC)c(OC)cc3n2)CC1 | influenza RNA promoter | 4.35
COc1cc2nc(N3CCN(C(=O)CNC(=O)CNC(=O)CN)CC3)nc(N)c2cc1OC | influenza RNA promoter | 3.88
COc1cc2nc(N3CCN(C(=O)C4CC4)CC3)nc(N)c2cc1OC | influenza RNA promoter | 3.90
CCC(=O)N1CCN(c2nc(N)c3cc(OC)c(OC)cc3n2)CC1 | influenza RNA promoter | 3.94
COc1cc2nc(N3CCN(C(=O)c4cccs4)CC3)nc(N)c2cc1OC | influenza RNA promoter | 3.66
COc1cc2nc(N3CCN(C(=O)C(C)C)CC3)nc(N)c2cc1OC | influenza RNA promoter | 3.80
COc1cc2nc(N3CCN(C(=O)c4ccccc4)CC3)nc(N)c2cc1OC | influenza RNA promoter | 3.49
COc1cc2nc(N3CCNCC3)nc(N)c2cc1OC | influenza RNA promoter | 4.21

###

Examples of molecules with documented IC50/CC50 follow.
# System: A/WSN/33 influenza virus (WSN-Ren luciferase virus) in MDCK-HA cells
# settings: ratio of WSN-Ren IC50 to ATPlite CC50
quantityKind: IC50/CC50

molecule | quantityKind | observedResult
COc1cc2nc(N3CCNCC3)nc(N)c2cc1OC [Compound 1] | IC50/CC50 | <0.55
COc1cc2nc(N3CCN(C(=O)C4CC4)CC3)nc(N)c2cc1OC [Compound 10] | IC50/CC50 | <0.14
COc1cc2nc(N3CCN(C(=O)c4cccs4)CC3)nc(N)c2cc1OC [Compound 15] | IC50/CC50 | 0.25
CCCC(=O)N1CCN(c2nc(N)c3cc(OC)c(OC)cc3n2)CC1 [Compound 8] | IC50/CC50 | <0.18

###

# method: in vitro
# settings: dog
CC50 at 24 h values by entry

molecule | CC50 at 24 h
COc1cc2nc(N3CCN(C(=O)c4cccs4)CC3)nc(N)c2cc1OC | 67 µM
COc1cc2nc(N3CCN(C(=O)C(C)C)CC3)nc(N)c2cc1OC | > 250 µM
COc1cc2nc(N3CCN(C(=O)CNC(=O)CNC(=O)CN)CC3)nc(N)c2cc1OC | > 250 µM
COc1cc2nc(N3CCN(S(C)(=O)=O)CC3)nc(N)c2cc1OC | > 250 µM
COc1cc2nc(N3CCN(C(=O)C(C)OC)CC3)nc(N)c2cc1OC (centres unmarked) | > 250 µM

###

List of IC50/CC50 values.
# System: A/WSN/33 influenza virus (WSN-Ren luciferase virus) in MDCK-HA cells
# settings: ratio of WSN-Ren IC50 to ATPlite CC50

structureSmiles | IC50/CC50
COc1cc2nc(N3CCN(C(=O)C(C)C)CC3)nc(N)c2cc1OC | <0.14
COc1cc2nc(N3CCN(C(=O)C45CC6CC(CC(C6)C4)C5)CC3)nc(N)c2cc1OC | >15.24
CCC(=O)N1CCN(c2nc(N)c3cc(OC)c(OC)cc3n2)CC1 | <0.16
COc1cc2nc(N3CCN(C(=O)c4ccco4)CC3)nc(N)c2cc1OC | 0.36
COc1cc2nc(N3CCN(C(=O)c4ccccc4)CC3)nc(N)c2cc1OC | <0.43
